Experiment: In-vivo pharmacokinetic evaluation, single dose
Set-up: species or system New Zealand White rabbits
Details: New Zealand White, whole blood, 1 mg; heading: Average Tac conc.; rabbit blood, 24.0 (1440 mins) after single 1 mg dose (oral or buccal patch)
measured.metric: concentration at 24 h
Give me the value, and tack the unit on after it.

Prompt: Return reported concentration at 24 h; argument: C=CC[C@@H]1/C=C(\C)C[C@H](C)C[C@H](OC)[C@H]2O[C@@](O)(C(=O)C(=O)N3CCCC[C@H]3C(=O)O[C@H](/C(C)=C/[C@@H]3CC[C@@H](O)[C@H](OC)C3)[C@H](C)[C@@H](O)CC1=O)[C@H](C)C[C@@H]2OC (relative stereo) [Tacrolimus, monohydrate]
Completion: 2.4 ng/mL
